- Assay Protocol: in vitro
- Condition Context: human
Measure Name: CC50

Known CC50 results, listed for orientation:
Compound	CC50
CCNC(=S)N/N=C1\C[C@@H]2CC[C@@]1(C)C2(C)C [2′c]	530 µM
COc1ccc(-c2cs/c(=N/N=C3\C[C@H]4CC[C@]3(C)C4(C)C)n2C)cc1 [Compound 7d]	97.4 µM
Cn1c(-c2ccccc2)cs/c1=N/N=C1\C[C@H]2CC[C@]1(C)C2(C)C [Compound 8d]	< 44.2 µM

Okay, now this compound:
Inquiry: Complete the entry with CC50 for CC1(C)[C@@H]2CC[C@@]1(C)/C(=N/N=c1/scc(-c3ccccc3)n1-c1ccccc1)C2 [Compound 8a]
Reply text: 89.6 µM
